- Test Protocol: NFAT Signaling Pathway (AID 444);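 also: carbachol stimulus at about its EC50 of 1 µM final; % is scaled to controls: 0 for no effect and ±100 for the full control effect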
- Test Settings: Jurkat NFAT-bla M1, carbachol, beta-lactamase ratio, 5 h; at 38 µM (top of the series)
Results filed as inconclusive are left out.
Property Name: activity change, negative = inhibition (%)
Could you give me the number in %? Just the number is fine.

The molecule listed as `CC(C)(Oc1ccc([C@@H]2CC2(Cl)Cl)cc1)C(=O)O` has a reported activity change, negative = inhibition of -7.66

The molecule listed as `O=C(c1ccccc1)c1ccc2n1CC[C@H]2C(=O)O` has a reported activity change, negative = inhibition of -0.138

The molecule listed as `C[C@@H](C(=O)O)c1cccc(C(=O)c2ccccc2)c1` has a reported activity change, negative = inhibition of 19.5

The molecule listed as `CN1C(=O)CC[C@@H]1c1cccnc1` has a reported activity change, negative = inhibition of 1.74

The molecule listed as `C[C@@H](C[N+](C)(C)C)OC(N)=O` has a reported activity change, negative = inhibition of 17.1

The molecule listed as C[C@]12CCC3c4ccc(O)cc4CCC3[C@@H]1CCC2=O (stereo partly specified) has a reported activity change, negative = inhibition of -2.29

The molecule listed as `CCCN[C@@H](C)C(=O)Nc1ccccc1C` has a reported activity change, negative = inhibition of 0.91

The molecule listed as `CC(=O)[C@@H]1CC[C@@H]2[C@@H]3CCC4=CC(=O)CC[C@@]4(C)[C@H]3CC[C@]21C` has a reported activity change, negative = inhibition of -21.5

The molecule listed as `CO/N=C(\C(=O)N[C@@H]1C(=O)N2C(C(=O)O)=C(COC(C)=O)CS[C@@H]12)c1csc(N)n1` has a reported activity change, negative = inhibition of 3.41

The molecule listed as `CC(=O)OCC1=C(C(=O)O)N2C(=O)[C@@H](NC(=O)CSc3ccncc3)[C@@H]2SC1` has a reported activity change, negative = inhibition of 4.33

The molecule listed as `O=C(C1CCCCC1)N1CC(=O)N2CCc3ccccc3[C@@H]2C1` has a reported activity change, negative = inhibition of -8.74
